Origin of measurements: patent US20240270821A1

- TARGET ENTITY: hGLP-1R (Homo sapiens, UniProt P43220)
- Sequence (P43220 24-463): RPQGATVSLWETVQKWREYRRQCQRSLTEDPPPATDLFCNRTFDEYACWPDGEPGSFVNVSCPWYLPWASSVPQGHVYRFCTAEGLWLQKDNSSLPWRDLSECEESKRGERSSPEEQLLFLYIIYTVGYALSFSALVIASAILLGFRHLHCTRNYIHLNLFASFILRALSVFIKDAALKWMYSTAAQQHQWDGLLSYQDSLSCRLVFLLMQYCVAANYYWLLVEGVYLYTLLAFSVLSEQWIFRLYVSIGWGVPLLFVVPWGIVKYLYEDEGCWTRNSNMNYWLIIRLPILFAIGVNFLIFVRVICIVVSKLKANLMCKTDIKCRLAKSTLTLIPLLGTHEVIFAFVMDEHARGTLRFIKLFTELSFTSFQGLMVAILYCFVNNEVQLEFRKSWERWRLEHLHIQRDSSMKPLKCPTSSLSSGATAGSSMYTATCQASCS
- EXPERIMENT: cell-based or functional assay
Could you mark each record yes (1) if its cAMP Rel EC50 (1% HSA) falls strictly under 200 nM, and no (0) if it equals or exceeds it?

Take a look at these entries with their results.
>  <BINDER>
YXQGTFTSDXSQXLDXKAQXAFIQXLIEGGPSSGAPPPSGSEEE (non-natural residues, acylated Lys (γGlu-C18 diacid), C-terminal amide; synthetic construct; SITE 2: note = 2-Aminoisobutyric Acid; SITE 10: note = 3-(4-Pyridyl)-L-alanine; SITE 13: note = alpha-methyl-leucine; SITE 16: note = L-ornithine; SITE 17: note = Lysine is chemically modified through conjugation of the epsilon-amino group of the Lysine side chain with D-Glutami) [Example 1073]

>  <CLASSIFICATION>
yes (1)

$$$$
>  <BINDER>
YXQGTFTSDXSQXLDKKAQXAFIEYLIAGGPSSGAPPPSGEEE (non-natural residues; acylated Lys; C-terminal amide; synthetic construct; SITE 2: note = 2-Aminoisobutyric Acid; SITE 10: note = 3-(4-Pyridyl)-L-alanine; SITE 13: note = alpha-methyl-leucine; SITE 17: note = Lysine is chemically modified through conjugation of the epsilon-amino group of the Lysine side chain with (Glu)-(gamma-Glu)-CO-(CH2)16-CO2H; SIT) [Example 1089]

>  <CLASSIFICATION>
no (0)

$$$$

Exercise: Determine if YXQATXTSDXXIXLDXKAQXEFIEXLVEGGPSSGAPPPSGS (synthetic construct; SITE 2: note = 2-Aminoisobutyric Acid; SITE 4: note = D-amino acid; SITE 6: note = alpha-methyl-2-fluoro-L-phenylalanine; SITE 10: note = 3-(4-Pyridyl)-L-alanine; SITE 11: note = alpha-methyl-L-serine; SITE 13: note = alpha-methyl-leucine; SITE 16: note = L-ornithine; SITE 17: n) [Example 1204] shows cAMP Rel EC50 (1% HSA) strictly lower than 200 nM.
Key: yes (1)

Exercise: Dear colleague, could you confirm whether cAMP Rel EC50 (1% HSA) of YXQGTFTSDXSQXLDKKAQXAFIEXLIEXGPSSGEPPPSGEEE (non-natural residues (Aib, 4Pal, Me4Pal, αMeL); lipidated Lys; C-amide; synthetic construct; SITE 2: note = 2-Aminoisobutyric Acid; SITE 10: note = 3-(4-Pyridyl)-L-alanine; SITE 13: note = alpha-methyl-leucine; SITE 17: note = Lysine is chemically modified through conjugation of the epsilon-amino group of the Lysine side chain with (gamma-Glu)2-CO-(CH2)16-CO2H; SITE 20:) [Example 1124] falls below 200 nM? Thanks.
Key: no (0)

Exercise: Identify whether the binder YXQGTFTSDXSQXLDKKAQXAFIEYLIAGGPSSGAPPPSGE (non-natural residues; lipidated Lys; C-terminal amide; synthetic construct; SITE 2: note = 2-Aminoisobutyric Acid; SITE 10: note = 3-(4-Pyridyl)-L-alanine; SITE 13: note = alpha-methyl-leucine; SITE 17: note = Lysine is chemically modified through conjugation of the epsilon-amino group of the Lysine side chain with D-Glutamic acid-(gamma-Glu)-CO-(CH2)16) [Example 1085] records cAMP Rel EC50 (1% HSA) below 200 nM.
Key: yes (1)

Exercise: hey, is cAMP Rel EC50 (1% HSA) for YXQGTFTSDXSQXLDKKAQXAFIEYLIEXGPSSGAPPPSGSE (γGlu-C18 diacid on Lys; non-natural residues; amide; synthetic construct; SITE 2: note = 2-Aminoisobutyric Acid; SITE 10: note = 3-(4-Pyridyl)-L-alanine; SITE 13: note = alpha-methyl-leucine; SITE 17: note = Lysine is chemically modified through conjugation of the epsilon-amino group of the Lysine side chain with (gamma-Glu)-(D-Glutamic acid)2-CO-(CH2)) [Example 926] lower than 200 nM or not?
Key: no (0)
